meta.source: patent US20250002563A1

# system: RBDSARS-CoV-2 (SARS-CoV-2 S protein residues 319-539, C-terminal His-tag) (SARS-CoV-2, UniProt P0DTC2 319-539)
# protocol_description: ELISA
pIC50: −log10 of the molar value.
pIC50 values, listed per item

Requested field: pIC50. Item: 5p-98 (VHH) VHH: QVQLVESGGGLVQPGGSLRLSCAASGRTLSNYAMGWFRQAPGKEREFVAVIRQRTGMRSYTYYADSVEGRFTISGDGAKMTVSLQMNSLKPEDTAVYYCAIDLIDDYKSTYYYSTQPSSYDYWGQGTQVTVSS
> 8.00

Requested field: pIC50. Item: 5p-125 (VHH) VHH: HVQLVESGGGLVQAGDSLRLSCAASRIFSTSAMGWFRQAPGKEREFVAAISWSGTNTHYADPVKGRFAISTDNAKNTVYLQMNSLKPEDTAVYYCAQGGWGLRQPIEVDYWGKGTQVTVSS
> 8.00

Requested field: pIC50. Item: 5p-156 (VHH) VHH: EVQLVESGGGLVQAGDSLRLSCVASGRTFTTSIMGWFRQAPGKEREFVAAIARNGVSTFYADSVKGRFTASRDNAKNTLYLQMNSLKPEDTGVYYCAAKPRGVGLTDRISDYDYWGQGTQVTVSS
> 8.00

Requested field: pIC50. Item: 4P-10 (VHH) VHH: HVQLVESGGGLVQAGDSLRLSCTASGRTFSAYGMGWFRQAPGKEREFVAGIARSGSEYYGDSVKGRFTISRDNAKNTVYLQMASLKAEDTGVYYCAADPTILYHAISQRTQNYRYWGPGTQVTVSS
> 8.00

Requested field: pIC50. Item: 4P-56 (VHH, class IV psNb) VHH: QVQLVESGGGLVQAGGSLRLSCAASGRTDSISDMGWFRQAPGKEREFVAVVGWSGGGTDYAHSVKGRFTISRDNAKNTVYLQMNSLKPEDTAVYYCAVGSLRVGSFSVEYWGQGTQVTVSS
> 8.00

Requested field: pIC50. Item: 4P-1 (VHH) VHH: DVQLVESGGGLVQAGGSLRLSCAASGRTGSRYPMGWFRQAPGKEREFVATISWSDSRTYYADSVKGRFTISRDNAKNTVFLQMASLKPEDTAVYYCAAAHARVYGANWSSSNRYDYDSWGQGTQVTVSS
7.00 to 8.00

Requested field: pIC50. Item: 4P-89 (VHH) VHH: HVQLVESGGGLVQAGGSLRLSCAASGRTLTTYSMAWFRQAPGKEREVVAAITPTGFGTYYADFVKGRFTISRNSAKNTVYLQMDSLKPEDTAVYYCAARSEIIIASPTGGEYDYWGQGTQVTVSS
> 8.00

Requested field: pIC50. Item: 5p-58 (VHH) VHH: HVQLVESGGGLVQAGESLRLLCVASGSIDSINAMGWFRQAPGKQRELVASISNMHTTMYAESVKGRFTISRDNFKNTADLQMNSLKPEDTAIYFCNLRQGCSYNGCDEYWGQGTQVTVSS
> 8.00

Requested field: pIC50. Item: 4P-28 (VHH) VHH: QVQLVESGGGLVQAGGSLRLSCAASGRTFSHYPTGWFRQAPGKEREFVSTISESGTSTYYADSVKGRFTISRDNAKNSVYLQMNSLKPEDTALYYCAADTAGRTQYGSSWSTLDGFVYWGQGTQVTVSS
7.00 to 8.00

Requested field: pIC50. Item: 5p-2 (VHH) VHH: QVQLVESGGGLVQAGGSLRLSCAVSGRTGSRWPMGWFRQAPGKEREFVATISWSDSRTYYADSVKGRFTIARDNAKNTVFLQMASLKPEDTAVYYCAAAHGRVYGANWSSTNRYDYDSWGQGTQVTVSS
7.00 to 8.00
